Hello, the source for this data is PubChem BioAssay (NCI), in case you need it.

- Test system: UO-31 renal
- Protocol notes: NCI-60 one-dose screen, 48 h
- Experimental conditions: 10 µM unless noted
Compounds without any hit were thinned out: in the full panel of roughly 83,000, 20% have a hit. Active and inactive are the calls of the source. How the source made its calls: active means growth percent below 10; inactive means the rest.
Use one of these outcomes when replying: 1.0 (active), 0.0 (inactive)

O=C(Nc1ccc(Cl)c(C(F)(F)F)c1)Nc1ccc(-c2cccnc2)cc1N1CCC(CO)CC1	0.0
COc1ccc(NCc2cn(-c3ccc(C(=O)O)cc3)nc2-c2ccc(C(=O)O)cc2)cc1C(F)(F)F	0.0
O=c1[nH]cnc2c1ccn2C1OC(CO)C(O)C1O (stereo not given)	0.0
CCOc1ccccc1/C=N\Nc1ccc(S(=O)(=O)c2ccc(N/N=C/c3ccccc3OCC)cc2)cc1	0.0
CCOC(=O)C1=C(C(=O)c2ccc(Br)cc2)C(c2ccc(Br)cc2)NC(=S)N1 (stereo not given)	0.0
Cc1cc[n+](CCCCCCCCCC[n+]2ccc(C)cc2)cc1	0.0
COC(=O)[C@]1(C)CC[C@]2(C)CC[C@]3(C)C(=CC(=O)[C@@H]4[C@@]5(C)CCC(=O)NC(C)(C)[C@@H]5CC[C@]43C)[C@@H]2C1	1.0
COc1ncc(-c2ccc3nccc(C#CCCCCC(=O)O)c3c2)cc1NS(=O)(=O)c1ccc(F)cc1F	0.0
NC(=S)Cc1ccccc1	0.0

Moving on to the next compound.
Task item: Lab log entry: C#CC(OC(=O)N(C)C)(c1ccccc1)c1ccc(F)cc1 (stereo not given) — outcome as called in the assay?
Reply: 0.0
